Target: human β3 (Homo sapiens)
Construct: And then full length of human β3 gene was cloned using this fragment as a probe; expressed in transfected cells; host or cells: CHO cells (Chinese hamster ovary), pcDNA3 vector
Assay: Human β3-agonist activity (cAMP in CHO cells transfected with human β3 gene)
Format: cell-based
Settings: CHO; read-out: Intrinsic activity (%)
Structures can show the parent of a compound that is named as a salt.
readout label: Emax (%)
A number alone suffices; assume %.

Here are 2 compounds together with their reported answers.
CN(Cc1ccccc1)S(=O)(=O)c1cc(C(O)CNCCOc2ccc3c(c2)[nH]c2ccccc23)ccc1O (racemic) [Example 83, Hydrochloride]	79
Oc1ccc(C(O)CNCCOc2ccc3c(c2)[nH]c2ccccc23)cc1 (racemic) [Example 29, Hydrochloride]	120

(Q) Any idea what its Emax is? The compound is OC(CNCCOc1ccc2oc3ccccc3c2c1)c1ccccc1 (racemic) [Example 34, Hydrochloride]
(A) 37

(Q) Any idea what its Emax is? The compound is CC(=O)Nc1ccc2c(c1)Cc1cc(OCCNCC(O)c3cccc(NS(C)(=O)=O)c3)ccc1-2 (racemic) [Example 10, Hydrochloride]
(A) 47

(Q) Any idea what its Emax is? The compound is CN(Cc1ccccc1)S(=O)(=O)Nc1cc(C(O)CNCCOc2ccc3c(c2)[nH]c2ccccc23)ccc1O (racemic) [Example 87, Hydrochloride]
(A) 138

(Q) Any idea what its Emax is? The compound is CNS(=O)(=O)c1cc(C(O)CNCCOc2ccc3c(c2)[nH]c2ccccc23)ccc1O (racemic) [Example 66, Hydrochloride]
(A) 106

(Q) Any idea what its Emax is? The compound is CS(=O)(=O)Nc1cccc([C@@H](O)CNCCOc2ccc3c(c2)[nH]c2ccccc23)c1 [Example 14, Hydrochloride]
(A) 97

---

Test system: canine adipocytes
Test: Lipolytic activity in canine fatty cell (glycerol release)
Format: cell-based, dogs
Conditions: Canis lupus familiaris, Adipocyte; read-out: Intrinsic activity (%)
Counter-ions that a name gives are not always drawn.
readout label: Emax

Here are 2 compounds together with their reported answers.
CS(=O)(=O)Nc1cc(C(O)CNCCOc2ccc3c(c2)oc2ccccc23)ccc1O (racemic) [Example 4, Hydrochloride]	88%
CS(=O)(=O)Nc1cccc(C(O)CNCCOc2ccc3c(c2)[nH]c2ccccc23)c1.Cl (racemic) [Example 7, Hydrochloride]	90%

(Q) Lookup: Emax / canine adipocytes / CC(=O)Nc1ccc2c(c1)Cc1cc(OCCNC[C@H](O)c3cccc(NS(C)(=O)=O)c3)ccc1-2 [Example 71, Hydrochloride]
(A) 88%

---

# EC50 listing for each entry below
Target: human β3 (Homo sapiens, UniProt P13945)
Construct: And then full length of human β3 gene was cloned using this fragment as a probe; expressed in transfected cells; host or cells: CHO cells (Chinese hamster ovary), pcDNA3 vector
Sequence (P13945 whole entry, the tested form may be a part): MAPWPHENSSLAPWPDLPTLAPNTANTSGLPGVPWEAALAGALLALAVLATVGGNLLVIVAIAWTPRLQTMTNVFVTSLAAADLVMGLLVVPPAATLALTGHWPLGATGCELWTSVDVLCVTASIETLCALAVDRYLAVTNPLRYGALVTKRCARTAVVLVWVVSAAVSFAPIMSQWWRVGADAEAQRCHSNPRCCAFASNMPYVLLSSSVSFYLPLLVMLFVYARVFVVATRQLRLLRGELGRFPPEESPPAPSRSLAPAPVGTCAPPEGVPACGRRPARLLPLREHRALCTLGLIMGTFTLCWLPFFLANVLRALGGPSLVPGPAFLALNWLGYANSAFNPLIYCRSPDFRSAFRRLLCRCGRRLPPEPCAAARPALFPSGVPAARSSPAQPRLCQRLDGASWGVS
Experiment: Human β3-agonist activity (cAMP in CHO cells transfected with human β3 gene)
Type: cell-based
Conditions: cAMP, CHO cells with human β3; read-out: ED50 (the source's name)
Structures can show the parent of a compound that is named as a salt.
A number alone suffices; assume nM.

Here are 3 molecules together with their reported answers.
CC(=O)Nc1ccc2c(c1)Cc1cc(OCCNCC(O)c3ccc(O)c(NS(C)(=O)=O)c3)ccc1-2 (racemic) [Example 50, Hydrochloride]	0.94
CN(Cc1ccccc1)S(=O)(=O)c1cc(C(O)CNCCOc2ccc3c(c2)[nH]c2ccccc23)ccc1O (racemic) [Example 83, Hydrochloride]	740
CC(COc1ccc2c(c1)[nH]c1ccccc12)NCC(O)c1cccc(NS(C)(=O)=O)c1 (racemic) [Example 11, Hydrochloride]	26

Then this molecule:
(Q) Any idea what its EC50 is? The molecule is C[C@H](COc1ccc2c(c1)[nH]c1ccccc12)NC[C@H](O)c1ccccc1 [Example 35, Hydrochloride]
(A) 520
